These measurements were taken from patent US20210347873A1.

system: mouse BLyS protein (mouse, UniProt Q9WU72 69-309)
Sequence (Q9WU72 69-309): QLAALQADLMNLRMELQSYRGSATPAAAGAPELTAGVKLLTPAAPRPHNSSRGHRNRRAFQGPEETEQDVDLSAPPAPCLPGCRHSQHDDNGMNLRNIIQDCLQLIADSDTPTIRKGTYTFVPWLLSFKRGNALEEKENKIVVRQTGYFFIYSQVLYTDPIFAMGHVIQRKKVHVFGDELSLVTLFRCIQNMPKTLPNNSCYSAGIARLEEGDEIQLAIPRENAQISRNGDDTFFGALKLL
assay method text: cell-based or functional assay
readout name: mouse B lymphocyte proliferation (OD450 nm), antibody 100 nM
Dear colleague, please return just the value in OD450 nm, with no unit written.

-- ask mouse B lymphocyte proliferation (OD450 nm), antibody 100 nM lookup needed for 35E6F7C3 (antibody, V domains shown, Mouse hybridoma monoclonal antibody purified on Protein G) VH: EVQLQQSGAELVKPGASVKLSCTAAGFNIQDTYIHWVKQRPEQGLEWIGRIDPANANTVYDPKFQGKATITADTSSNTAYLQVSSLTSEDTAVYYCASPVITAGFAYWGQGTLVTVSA VL: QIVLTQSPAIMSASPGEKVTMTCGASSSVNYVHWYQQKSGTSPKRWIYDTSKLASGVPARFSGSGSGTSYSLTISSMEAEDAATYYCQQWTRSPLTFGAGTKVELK , thanks.
-- reply 2490

-- ask Moving on to the next binder: 93C6F10D3 (antibody, V domains shown, Mouse hybridoma monoclonal antibody purified on Protein G) VH: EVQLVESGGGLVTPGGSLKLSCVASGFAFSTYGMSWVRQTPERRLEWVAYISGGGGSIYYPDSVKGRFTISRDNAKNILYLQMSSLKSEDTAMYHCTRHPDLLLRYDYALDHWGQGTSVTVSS VL: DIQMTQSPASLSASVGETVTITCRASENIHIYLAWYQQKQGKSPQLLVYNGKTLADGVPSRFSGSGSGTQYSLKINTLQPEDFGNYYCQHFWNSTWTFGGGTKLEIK
-- reply 2740
